Target: ATP-binding cassette transporter A1 (ABCA1) (mouse, UniProt P41233 1-2261)
Sequence (P41233 whole entry): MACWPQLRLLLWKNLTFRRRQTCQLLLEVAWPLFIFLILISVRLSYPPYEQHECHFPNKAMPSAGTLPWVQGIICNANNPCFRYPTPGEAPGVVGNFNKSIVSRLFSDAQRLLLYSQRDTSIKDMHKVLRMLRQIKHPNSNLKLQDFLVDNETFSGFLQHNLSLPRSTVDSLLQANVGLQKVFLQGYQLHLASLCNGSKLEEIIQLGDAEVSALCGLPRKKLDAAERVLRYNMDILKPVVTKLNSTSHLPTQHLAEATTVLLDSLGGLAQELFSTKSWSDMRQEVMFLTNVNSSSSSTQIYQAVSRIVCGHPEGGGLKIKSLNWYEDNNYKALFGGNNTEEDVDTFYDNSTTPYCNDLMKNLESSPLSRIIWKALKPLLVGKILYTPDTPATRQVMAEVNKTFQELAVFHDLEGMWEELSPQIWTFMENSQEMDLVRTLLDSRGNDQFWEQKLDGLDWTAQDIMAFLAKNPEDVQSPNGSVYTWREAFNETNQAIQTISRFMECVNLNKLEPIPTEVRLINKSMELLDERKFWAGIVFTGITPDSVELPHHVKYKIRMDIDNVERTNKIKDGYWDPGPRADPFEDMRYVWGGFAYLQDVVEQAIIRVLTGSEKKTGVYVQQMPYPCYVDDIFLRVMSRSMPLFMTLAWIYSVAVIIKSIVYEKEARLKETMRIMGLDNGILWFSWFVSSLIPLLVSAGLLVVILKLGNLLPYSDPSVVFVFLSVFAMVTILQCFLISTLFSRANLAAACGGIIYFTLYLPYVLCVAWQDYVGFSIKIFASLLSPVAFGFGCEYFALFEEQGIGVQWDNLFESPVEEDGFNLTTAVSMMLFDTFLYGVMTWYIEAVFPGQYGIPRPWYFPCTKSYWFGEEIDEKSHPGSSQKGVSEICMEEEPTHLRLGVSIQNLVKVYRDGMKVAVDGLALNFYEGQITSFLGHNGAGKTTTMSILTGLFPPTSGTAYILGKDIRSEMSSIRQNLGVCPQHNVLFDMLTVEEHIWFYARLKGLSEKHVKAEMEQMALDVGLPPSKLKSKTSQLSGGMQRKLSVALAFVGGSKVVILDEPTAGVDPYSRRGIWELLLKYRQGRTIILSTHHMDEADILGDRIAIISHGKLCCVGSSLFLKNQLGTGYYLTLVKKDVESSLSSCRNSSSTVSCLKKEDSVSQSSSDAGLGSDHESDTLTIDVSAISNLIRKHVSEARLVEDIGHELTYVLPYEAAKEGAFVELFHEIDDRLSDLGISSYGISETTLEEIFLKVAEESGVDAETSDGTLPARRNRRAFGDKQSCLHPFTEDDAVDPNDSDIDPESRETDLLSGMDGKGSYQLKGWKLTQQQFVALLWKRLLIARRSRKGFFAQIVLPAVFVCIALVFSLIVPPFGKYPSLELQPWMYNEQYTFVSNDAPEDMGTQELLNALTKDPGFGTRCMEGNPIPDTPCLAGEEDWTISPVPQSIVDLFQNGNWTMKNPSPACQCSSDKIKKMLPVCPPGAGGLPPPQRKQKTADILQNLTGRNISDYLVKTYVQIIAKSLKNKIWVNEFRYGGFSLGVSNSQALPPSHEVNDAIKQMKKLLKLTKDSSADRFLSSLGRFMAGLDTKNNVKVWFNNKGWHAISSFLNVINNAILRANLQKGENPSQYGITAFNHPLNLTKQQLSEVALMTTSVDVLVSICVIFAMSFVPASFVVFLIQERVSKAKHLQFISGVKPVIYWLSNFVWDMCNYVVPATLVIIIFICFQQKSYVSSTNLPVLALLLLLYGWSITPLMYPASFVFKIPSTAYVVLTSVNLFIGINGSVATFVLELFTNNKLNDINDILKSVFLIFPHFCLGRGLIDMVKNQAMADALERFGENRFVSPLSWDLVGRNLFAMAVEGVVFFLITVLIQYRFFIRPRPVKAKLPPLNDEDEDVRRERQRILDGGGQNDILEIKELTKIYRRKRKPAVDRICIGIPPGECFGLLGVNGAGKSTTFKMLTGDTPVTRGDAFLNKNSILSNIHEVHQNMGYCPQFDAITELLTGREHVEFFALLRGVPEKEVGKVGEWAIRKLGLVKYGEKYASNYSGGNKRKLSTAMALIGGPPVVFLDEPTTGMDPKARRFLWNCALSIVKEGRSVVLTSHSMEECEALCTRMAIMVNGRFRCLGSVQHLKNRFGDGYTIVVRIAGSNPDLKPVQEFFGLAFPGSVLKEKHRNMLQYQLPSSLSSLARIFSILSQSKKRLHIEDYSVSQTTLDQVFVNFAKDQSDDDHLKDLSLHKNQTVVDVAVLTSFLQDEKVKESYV
Experiment: cell-based or functional assay
*1 amine or outer side, *2 acyl side, *3 side chain or, on linkers, in order; H or OH if unused. Where no end group is shown, it is not given here. [ ]: non-standard residue; d: D form. dNle(6-ylidene) = O=C([C@@H](CCCC=[*:3])N[*:1])[*:2]; dGly(6-heptenyl) = C=CCCCCC[C@@H](N)C(=O)O; Ala(5-hexenyl) = C=CCCCCC[C@H](N)C(=O)O
Can you tell me ABCA1-dependent cholesterol efflux, % at 100 uM for the items I'm about to list?
Give just the numeric value; % need not be written.

The reported ABCA1-dependent cholesterol efflux, % at 100 uM of the binder Ac-PVLDEFRE[Ala(5-hexenyl)]LNEELEALKQKLK [CONS[S7H^9]] was 1.4

For record Ac-[dP][dV][dL][dD][dE][dGly(6-heptenyl)][dR][dE][dK][dL][dN][dE][dE][dL][dE][dA][dL][dK][dQ][dK][dL][dK] (not fully specified (C-terminus)) [D-CONS[R7H^6]] the listed ABCA1-dependent cholesterol efflux, % at 100 uM is 19

response.value for Ac-PVLDEFREKLNEELEALKQ[dGly(6-heptenyl)]LK (not fully specified (C-terminus); printed as PVLDEFREKLNEELEALKQR7HLK) [CONS[R7H^20]] (field: ABCA1-dependent cholesterol efflux, % at 100 uM) = 1.4

Input Ac-PVLDEFREKLNE[dNle(6-ylidene)]LEALKQKLK (not fully specified (C-terminus)) [CONS[R5H^13]] . Output ABCA1-dependent cholesterol efflux, % at 100 uM: 6.2
